# MEASUREMENT TARGET: Muscarinic acetylcholine receptor M1 (Homo sapiens) (UniProt P11229)
# Sequence (whole entry): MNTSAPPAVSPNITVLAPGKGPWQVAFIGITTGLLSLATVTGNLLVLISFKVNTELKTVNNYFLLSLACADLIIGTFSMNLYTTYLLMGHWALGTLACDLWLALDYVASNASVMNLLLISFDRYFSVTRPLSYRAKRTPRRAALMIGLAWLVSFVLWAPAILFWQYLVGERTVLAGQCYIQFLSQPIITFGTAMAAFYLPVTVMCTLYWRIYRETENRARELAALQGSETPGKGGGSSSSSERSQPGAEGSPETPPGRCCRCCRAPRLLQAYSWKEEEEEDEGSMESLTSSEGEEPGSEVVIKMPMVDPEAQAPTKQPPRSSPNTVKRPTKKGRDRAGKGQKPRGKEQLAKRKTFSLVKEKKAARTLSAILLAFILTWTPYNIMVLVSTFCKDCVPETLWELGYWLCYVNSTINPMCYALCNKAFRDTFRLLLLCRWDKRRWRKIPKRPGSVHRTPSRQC
# EXPERIMENT DESCRIPTION: Agonist activity at human M1 receptor at 100 uM to 5 mM
Activity calls are given as the source filed them. No cut-off for these calls is given here.

{"columns": ["MOLECULE", "Activity"],
 "data": [
  ["COc1ccc(C2C=Cc3ccccc3O2)cc1O (racemic)", "inactive"],
  ["COc1c(-c2cc(Br)ccc2F)oc2ccccc2c1=O", "inactive"],
  ["COc1ccc(C2C=Cc3ccccc3O2)cc1 (racemic)", "inactive"],
  ["O=c1c(OCCO)c(-c2cc(Br)ccc2F)oc2ccccc12", "inactive"],
  ["CN(C)c1ccc(C2C=Cc3ccccc3O2)cc1 (racemic)", "inactive"],
  ["O=c1c(O)c(-c2ccc(Cl)cc2Cl)oc2ccccc12", "inactive"]
]}

* * *

# MEASUREMENT TARGET: D(1A) dopamine receptor (Homo sapiens)
# EXPERIMENT DESCRIPTION: Agonist activity at human D1 receptor at 100 uM to 5 mM
Active and inactive are the calls of the source. No cut-off for these calls is given here.
QUANTITY NAME: Activity

{"columns": ["COMPOUND", "RESULT"],
 "data": [
  ["O=c1c(OCCO)c(-c2cc(Br)ccc2F)oc2ccccc12", "inactive"],
  ["O=c1c(O)c(-c2c(F)ccc(F)c2Cl)oc2ccccc12", "inactive"],
  ["COc1cccc(-c2oc3ccccc3c(=O)c2O)c1", "inactive"],
  ["O=c1c(O)c(-c2ccc(O)c(O)c2)oc2ccccc12", "inactive"],
  ["CN(C)c1ccc(C2C=Cc3ccccc3O2)cc1 (racemic)", "inactive"],
  ["O=c1c(O)c(-c2cccc(Br)c2)oc2ccccc12", "inactive"],
  ["O=c1c(O)c(-c2cccc(Cl)c2F)oc2ccccc12", "inactive"],
  ["COc1cc(-c2cc(=O)c3ccccc3o2)ccc1O", "inactive"],
  ["CN(C)c1ccc(-c2oc3ccccc3c(=O)c2O)cc1", "inactive"],
  ["O=c1cc(-c2ccc(Cl)cc2Cl)oc2ccccc12", "inactive"],
  ["O=c1c(O)c(-c2cccc(Cl)c2)oc2ccccc12", "inactive"],
  ["COc1ccc(C2C=Cc3ccccc3O2)cc1 (racemic)", "inactive"],
  ["COc1ccc(C2C=Cc3ccccc3O2)cc1O (racemic)", "inactive"],
  ["O=c1c(O)c(-c2ccccc2F)oc2ccccc12", "inactive"],
  ["O=c1cc(-c2ccccc2F)oc2ccccc12", "inactive"],
  ["Fc1ccccc1C1C=Cc2ccccc2O1 (racemic)", "inactive"],
  ["COc1ccc(-c2cc(=O)c3ccccc3o2)cc1O", "inactive"],
  ["O=c1c(O)c(-c2ccc(Cl)cc2Cl)oc2ccccc12", "inactive"],
  ["Clc1ccc(C2C=Cc3ccccc3O2)c(Cl)c1 (racemic)", "inactive"],
  ["O=c1c(O)c(-c2ccc(Br)cc2F)oc2ccccc12", "inactive"],
  ["COc1ccc(-c2oc3ccccc3c(=O)c2O)cc1O", "inactive"],
  ["COc1ccc(F)c(-c2oc3ccccc3c(=O)c2O)c1", "inactive"],
  ["COc1cc(-c2oc3ccccc3c(=O)c2O)ccc1O", "inactive"],
  ["O=c1cc(-c2ccc(O)cc2)oc2ccccc12", "inactive"],
  ["COc1c(-c2cc(Br)ccc2F)oc2ccccc2c1=O", "inactive"],
  ["O=c1c(O)c(-c2cc(Br)ccc2F)oc2ccccc12", "inactive"]
]}

* * *

# MEASUREMENT TARGET: Neuropeptide Y receptor type 5 (Homo sapiens) (UniProt Q15761)
# Sequence (whole entry): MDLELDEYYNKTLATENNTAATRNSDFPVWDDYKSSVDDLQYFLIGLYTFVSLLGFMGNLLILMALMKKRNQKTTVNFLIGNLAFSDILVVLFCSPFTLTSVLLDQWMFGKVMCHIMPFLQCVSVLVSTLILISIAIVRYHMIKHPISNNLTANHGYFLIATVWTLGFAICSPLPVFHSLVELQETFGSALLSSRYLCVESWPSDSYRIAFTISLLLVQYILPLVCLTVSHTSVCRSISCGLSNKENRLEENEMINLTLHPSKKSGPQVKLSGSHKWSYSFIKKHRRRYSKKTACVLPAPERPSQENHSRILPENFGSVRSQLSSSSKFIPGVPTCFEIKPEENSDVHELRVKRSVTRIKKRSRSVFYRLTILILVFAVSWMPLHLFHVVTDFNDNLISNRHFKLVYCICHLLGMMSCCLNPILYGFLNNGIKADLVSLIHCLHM
# EXPERIMENT DESCRIPTION: Agonist activity at human NPY5 receptor at 100 uM to 5 mM
The source made the active and inactive calls. The rule behind the calls is not given here.

{"columns": ["COMPOUND", "MEASUREMENT TARGET", "Activity"],
 "data": [
  ["O=c1c(O)c(-c2ccc(O)cc2)oc2ccccc12", "Neuropeptide Y receptor type 5 (Homo sapiens) (UniProt Q15761)", "inactive"],
  ["COc1cc(-c2oc3ccccc3c(=O)c2O)ccc1O", "Neuropeptide Y receptor type 5 (Homo sapiens) (UniProt Q15761)", "inactive"],
  ["CCOC(=O)COc1c(-c2cc(Br)ccc2F)oc2ccccc2c1=O", "Neuropeptide Y receptor type 5 (Homo sapiens) (UniProt Q15761)", "inactive"],
  ["O=c1c(O)c(-c2cccc(Br)c2)oc2ccccc12", "Neuropeptide Y receptor type 5 (Homo sapiens) (UniProt Q15761)", "inactive"],
  ["O=c1c(O)c(-c2cccc(Cl)c2F)oc2ccccc12", "Neuropeptide Y receptor type 5 (Homo sapiens) (UniProt Q15761)", "inactive"],
  ["COc1c(-c2cc(Br)ccc2F)oc2ccccc2c1=O", "Neuropeptide Y receptor type 5 (Homo sapiens) (UniProt Q15761)", "inactive"],
  ["O=c1c(OCCO)c(-c2cc(Br)ccc2F)oc2ccccc12", "Neuropeptide Y receptor type 5 (Homo sapiens) (UniProt Q15761)", "inactive"],
  ["COc1ccc(-c2cc(=O)c3ccccc3o2)cc1O", "Neuropeptide Y receptor type 5 (Homo sapiens) (UniProt Q15761)", "inactive"],
  ["O=c1cc(-c2ccc(Cl)cc2Cl)oc2ccccc12", "Neuropeptide Y receptor type 5 (Homo sapiens) (UniProt Q15761)", "inactive"],
  ["O=c1c(O)c(-c2cc(Br)ccc2F)oc2ccccc12", "Neuropeptide Y receptor type 5 (Homo sapiens) (UniProt Q15761)", "inactive"],
  ["O=c1c(O)c(-c2cccc(Cl)c2)oc2ccccc12", "Neuropeptide Y receptor type 5 (Homo sapiens) (UniProt Q15761)", "inactive"],
  ["O=c1c(O)c(-c2c(F)ccc(F)c2Cl)oc2ccccc12", "Neuropeptide Y receptor type 5 (Homo sapiens) (UniProt Q15761)", "inactive"],
  ["COc1cc(-c2cc(=O)c3ccccc3o2)ccc1O", "Neuropeptide Y receptor type 5 (Homo sapiens) (UniProt Q15761)", "inactive"],
  ["CN(C)c1ccc(C2C=Cc3ccccc3O2)cc1 (racemic)", "Neuropeptide Y receptor type 5 (Homo sapiens) (UniProt Q15761)", "inactive"],
  ["O=c1cc(-c2ccc(O)cc2)oc2ccccc12", "Neuropeptide Y receptor type 5 (Homo sapiens) (UniProt Q15761)", "inactive"],
  ["CCN(CC)c1ccc(-c2oc3ccccc3c(=O)c2O)cc1", "Neuropeptide Y receptor type 5 (Homo sapiens) (UniProt Q15761)", "inactive"],
  ["COc1ccc(C2C=Cc3ccccc3O2)cc1 (racemic)", "Neuropeptide Y receptor type 5 (Homo sapiens) (UniProt Q15761)", "inactive"],
  ["O=c1c(O)c(-c2ccc(Cl)cc2Cl)oc2ccccc12", "Neuropeptide Y receptor type 5 (Homo sapiens) (UniProt Q15761)", "inactive"],
  ["COc1cccc(-c2oc3ccccc3c(=O)c2O)c1", "Neuropeptide Y receptor type 5 (Homo sapiens) (UniProt Q15761)", "inactive"],
  ["COc1ccc(F)c(-c2oc3ccccc3c(=O)c2O)c1", "Neuropeptide Y receptor type 5 (Homo sapiens) (UniProt Q15761)", "inactive"],
  ["O=c1c(O)c(-c2ccc(Br)cc2F)oc2ccccc12", "Neuropeptide Y receptor type 5 (Homo sapiens) (UniProt Q15761)", "inactive"],
  ["O=c1c(O)c(-c2ccccc2F)oc2ccccc12", "Neuropeptide Y receptor type 5 (Homo sapiens) (UniProt Q15761)", "inactive"],
  ["O=c1cc(-c2ccccc2F)oc2ccccc12", "Neuropeptide Y receptor type 5 (Homo sapiens) (UniProt Q15761)", "inactive"],
  ["O=c1c(O)c(-c2ccc(O)c(O)c2)oc2ccccc12", "Neuropeptide Y receptor type 5 (Homo sapiens) (UniProt Q15761)", "inactive"],
  ["COc1ccc(-c2oc3ccccc3c(=O)c2O)cc1O", "Neuropeptide Y receptor type 5 (Homo sapiens) (UniProt Q15761)", "inactive"],
  ["COc1ccc(C2C=Cc3ccccc3O2)cc1O (racemic)", "Neuropeptide Y receptor type 5 (Homo sapiens) (UniProt Q15761)", "inactive"]
]}
